Below: molecules with IC50 recorded for Histone deacetylase 11 (Homo sapiens) in separate published works.

| smiles | result |
| --- | --- |
| Cn1c(N)nc2cc(-c3nnn(Cc4ccc(-c5nnc(C(F)F)o5)cc4)n3)ccc21 | > 30000 nM |
| CCN(CC)S(=O)(=O)c1cccc(-c2nnc(Sc3ccc(C(=O)NO)cc3)n2N)c1 | 904 nM |
| O=C(NO)c1ccc(NCc2csc3ccc(Br)cc23)cc1 | 15000 nM |
| Cn1c(N)nc2cc(-c3cn(Cc4ccc(-c5nnc(C(F)F)o5)cn4)nn3)ccc21 | > 30000 nM |
| O=C(NO)c1ccc(CN(C(=O)N2CCOCC2)c2cccc(Br)c2)cc1 | 780 nM |

Consider the molecule C[C@@H](Nc1ncc(-c2nnc(C(F)F)o2)cn1)c1ccc(F)cc1F and give its measured IC50.
> 30000 nM

Consider the molecule Nc1nc2ccc(-c3cn(Cc4ccc(-c5nnc(C(F)F)o5)cn4)nn3)cc2s1 and give its measured IC50.
> 30000 nM
